Tested on: HIV-1 (NL4-3 strain)
MEASUREMENT_DESCRIPTION: ViKinG (Viral Kinetics GFP Reporter) assay for inhibition of HIV replication
Assay type: cell-based
STATED_CONDITIONS: Human immunodeficiency virus 1, NL43; MT4-GFP cells infected with HIV-1 NL4-3; RPMI + 10% or 50% NHS (not given); infected cells at 48 h / 24 h
Where a name gives a salt, the structure may show the parent alone.
Binarize IC50 at 400 nM; below is T, at or above is F.

INSERT INTO results (molecule, label) VALUES
  ('C=C1COCc2c1c(=O)c(O)c1n2CCN(Cc2ccc(F)c(Cl)c2)C1=O', 'T'),
  ('CC1CCN(C(=O)CN(C)C)Cc2c1c(=O)c(O)c1n2CCN(Cc2ccc(F)c(Cl)c2)C1=O (stereo not shown)', 'F'),
  ('O=C1c2c(O)c(=O)c3c(n2CCN1Cc1ccc(F)c(Cl)c1)COCC1CC31 (stereo not shown)', 'T'),
  ('CC1CCNCc2c1c(=O)c(O)c1n2CCN(Cc2ccc(F)c(Cl)c2)C1=O (stereo not shown) [Compound 16, trifluoroacetate salt]', 'F'),
  ('O=C1c2c(O)c(=O)c3c(n2CCN1Cc1ccc(F)c(Cl)c1)COC31CCC2CC21 (stereo not shown)', 'T'),
  ('Cc1cn(C)c(=O)c2c1c(=O)c(O)c1n2CCN(Cc2ccc(F)c(Cl)c2)C1=O', 'F'),
  ('O=C1c2c(O)c(=O)c3c(n2CCN1Cc1ccc(F)c(Cl)c1)COCC=C3', 'T'),
  ('C=C1CCN(C(=O)C(=O)N(C)C)Cc2c1c(=O)c(O)c1n2CCN(Cc2ccc(F)c(Cl)c2)C1=O', 'F'),
  ('CC1CC12COCc1c2c(=O)c(O)c2n1CCN(Cc1ccc(F)c(Cl)c1)C2=O (stereo not shown)', 'F'),
  ('CC(C)c1c(CNC(=O)OC(C)(C)C)n2c(c(O)c1=O)C(=O)N(Cc1ccc(F)c(Cl)c1)CC2', 'F'),
  ('CC(C)c1c(C(=O)N(C)C)n2c(c(O)c1=O)C(=O)N(Cc1ccc(F)c(Cl)c1)CC2', 'T'),
  ('CC1CCN(C(=O)C(=O)N(C)C)Cc2c1c(=O)c(O)c1n2CCN(Cc2ccc(F)c(Cl)c2)C1=O (stereo not shown)', 'F'),
  ('CCC1COCc2c1c(=O)c(O)c1n2CCN(Cc2ccc(F)c(Cl)c2)C1=O (stereo not shown)', 'F'),
  ('C=C1CN(C)C(=O)c2c1c(=O)c(O)c1n2CCN(Cc2ccc(F)c(Cl)c2)C1=O', 'T'),
  ('CC(C)c1c(C(=O)N(C)C)n2c(c(O)c1=O)C(=O)N(Cc1ccc(F)cc1)CC2', 'T'),
  ('CC1=CCOCc2c1c(=O)c(O)c1n2CCN(Cc2ccc(F)c(Cl)c2)C1=O', 'T'),
  ('O=C1c2c(O)c(=O)c3c(n2CCN1Cc1ccc(F)c(Cl)c1)COC31CCCC1O (stereo not shown)', 'T'),
  ('CC1COCc2c1c(=O)c(O)c1n2CCN(Cc2ccc(F)c(Cl)c2)C1=O (stereo not shown)', 'T'),
  ('C/C=C1\COCc2c1c(=O)c(O)c1n2CCN(Cc2ccc(F)c(Cl)c2)C1=O', 'T'),
  ('C=C(C)C1COCc2c1c(=O)c(O)c1n2CCN(Cc2ccc(F)c(Cl)c2)C1=O (stereo not shown)', 'T');

The measured values listed here are drawn from patent US9493479B2.
